These data points were gathered from patent US9873702B2.

Parameter melting point: see the listing below.

compound: CS(=O)(=O)Nc1ccc(-c2nc(NCC(c3ccccc3)c3ccccc3)c3ccccc3n2)cn1
melting point: 210 °C
--
compound: c1ccc(CC(CNc2nc(-c3cnc4nccn4c3)nc3ccccc23)c2ccccc2)cc1 (centres unmarked)
melting point: 189 to 191 °C
--
compound: c1ccc(C(CNc2nc(-c3ccc4cn[nH]c4c3)nc3ccccc23)c2ccccc2)cc1
melting point: 223 °C
--
compound: Cc1cc2nccn2cc1-c1nc(NCC(c2ccncc2)c2ccc[nH]2)c2ccccc2n1 (centres unmarked)
melting point: 214 to 216 °C
--
compound: Cc1cc2nccn2cc1-c1nc(NCC(c2cccnc2)c2ccc[nH]2)c2ccccc2n1 (centres unmarked)
melting point: 121 to 125 °C
--
compound: O=C(N[C@H](CNc1nc(-c2ccc3nccn3c2)nc2ccccc12)c1ccccc1)c1ccccc1
melting point: 97 to 99 °C
--
compound: c1ccc(C(Nc2nc(-c3cncnc3)nc3ccccc23)c2ccccc2)cc1
melting point: 210 °C
--
compound: Cc1cc2nccn2cc1-c1nc(NCCc2cccnc2)c2ccccc2n1
melting point: 241 to 244 °C
